As shown below, each of these binders has a reported log10 kon value.
- assay-target: T1, cyno TF ECD-His (cTF-his) (monkey (cyno))
- T1 construct: also called bio-cTF-his; monkey TF-His protein
- T1 chain: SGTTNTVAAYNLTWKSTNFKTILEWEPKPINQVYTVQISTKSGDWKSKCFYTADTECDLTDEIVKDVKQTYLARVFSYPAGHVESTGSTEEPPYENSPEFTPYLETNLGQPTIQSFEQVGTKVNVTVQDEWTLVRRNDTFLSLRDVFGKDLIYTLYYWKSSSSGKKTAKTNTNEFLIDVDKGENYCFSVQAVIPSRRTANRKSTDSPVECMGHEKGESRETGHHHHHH
- assay-explanation: SPR Biacore T200, antibody on Protein A chip, TF-His as analyte, 1:1 model
Values are log10 of kon in M⁻¹ s⁻¹.

Worked examples, 4 binders total:
# binder, log10 kon
records = [
    ("chimeric antibody CH310 (antibody, human IgG1, kappa, V domains shown, Murine 310# variable regions + human constant regions) VH: EVQLQQSGPELVKPGASLKISCKASGYSFTGYYMNWVKQSPEKSLEWIGEINPSTGGSTYNQKFKAKATLTVDQSSNTAYMQLKSLTSEDSAVYYCARRELGGPFGYWGQGTPVTVSA VL: SIVMTQTPKFLLVSSGDRVTITCKASQSVSNGIAWYQQKPGQSPKLLIYFASNRYTGVPDRFTGSGYGTDFTFTISTVQAEDLAVYFCQQDYSSPWTFGGGTKLEIKR", 5.51),
    ("hu67-12 (antibody, human IgG1, kappa, V domains shown) VH: EVQLQESGPGLVKPSQTLSLTCTVSGFSLTNYGVNWIRQPPRKGLEWIGVIWSRGNTDYNAAFISRVTISKDNSKSQVSLKLSSVTAADTAVYYCARKDAVVATDALDYWGQGTTVTVSS VL: DIQMTQSPSSLSASVGDRVTITCKASQDVSTAVAWYQQKPGKAPKLLIYSTSYRYTGVPSRFSGSGSGTDFTFTISSLQPEDIATYYCQQHYSTPYTFGGGTKVEIKR", 4.52),
    ("hu67-6 (antibody, human IgG1, kappa, V domains shown) VH: EVTLKQSGPVLVKPTQTLTLTCTVSGFSLTNYGVNWIRQPPRKGLEWLGVIWSRGNTDYNAAFISRLTISKDNSKSQVVLKMTNMDPVDTATYYCARKDAVVATDALDYWGQGTTVTVSS VL: DIVMTQSPKSLAVSLGERATINCKASQDVSTAVAWYQQKPGQSPKLLIYSTSYRYTGVPDRFSGSGSGTDFTFTISSLQAEDVAVYYCQQHYSTPYTFGGGTKVEIKR", 4.48),
    ("hu67-14 (antibody, human IgG1, kappa, V domains shown) VH: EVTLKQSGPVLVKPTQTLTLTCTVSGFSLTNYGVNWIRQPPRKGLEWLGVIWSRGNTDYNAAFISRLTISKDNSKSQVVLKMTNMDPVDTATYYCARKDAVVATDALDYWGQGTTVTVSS VL: DIQMTQSHKFLSASVGDRVTITCKASQDVSTAVAWYQQKPGKSPKLLIYSTSYRYTGVPSRFSGSGSGTDFTFTISSLQPEDIATYYCQQHYSTPYTFGGGTKVEIKR", 4.49),
]

Continue with the next binder.
Query (binder): hu67-13 (antibody, human IgG1, kappa, V domains shown) VH: EVTLKQSGPVLVKPTQTLTLTCTVSGFSLTNYGVNWIRQPPRKALEWLAVIWSRGNTDYNAAFISRLTISKDTSKSQVVLKMTNMDPVDTATYYCARKDAVVATDALDYWGQGTTVTVSS VL: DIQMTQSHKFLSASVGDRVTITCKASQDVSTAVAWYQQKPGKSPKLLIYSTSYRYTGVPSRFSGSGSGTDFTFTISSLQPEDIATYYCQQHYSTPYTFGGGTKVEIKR ; field requested: log10 kon 4.50
